Data provenance is patent US20230125550A1.

- TEST SYSTEM: T1, recombinant human CD123-Fc (human, UniProt P26951 19-305)
- T1 construct: not shown: Fc part of CD123-Fc
- T1 sequence: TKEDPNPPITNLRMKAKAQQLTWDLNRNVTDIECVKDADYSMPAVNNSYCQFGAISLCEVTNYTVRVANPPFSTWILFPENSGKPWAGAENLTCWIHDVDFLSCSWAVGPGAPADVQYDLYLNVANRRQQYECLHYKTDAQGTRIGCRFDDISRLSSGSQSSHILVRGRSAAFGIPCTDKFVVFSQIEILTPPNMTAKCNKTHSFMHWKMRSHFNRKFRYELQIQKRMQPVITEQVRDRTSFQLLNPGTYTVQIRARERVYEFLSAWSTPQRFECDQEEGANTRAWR
- ASSAY EXPLANATION: phage ELISA, captured CD123-Fc
Exercise: state measured ELISA_avg for each of the binders provided.
Numbers only, in ratio A450 target/IgG1-Fc.

Field: example entries. Status: answers known.
INSERT INTO assay_data (binder, assay_readout, readout_number) VALUES
  ('SEQ ID NO: 608 (designed binder, D domain, on phage) MGSWYEFVYRLRAIDERLDALGGSEAELAMFEFEIAFFEDQLQRYKGKGNPEVEALVDEAQAIDFELFAYRHN', 'ELISA_avg', 4.5),
  ('SEQ ID NO: 542 (designed binder, D domain, on phage) MGSWEEFDQRLDAIDVRLYALGGSEAELAEFEFDIAAFEEWLQLYKGKGNPEVEALNMEAFAITDELCAYRHN', 'ELISA_avg', 3.6),
  ('SEQ ID NO: 502 (designed binder, D domain, on phage) MGSWHWFKIVLADIKDGLEALGGSEAELAYFETTIADFEMDLQHYKGKGNPEVEALRKEAAAIRDELQAYRHN', 'ELISA_avg', 4.3),
  ('SEQ ID NO: 489 (designed binder, D domain, on phage) MGSWYEFKFDLAEIKEQLEALGGSEAELALFEDDIAFFEYDLQNYKGKGNPEVEALRKEAAAIRDELQAYRHN', 'ELISA_avg', 4.6),
  ('SEQ ID NO: 414 (designed binder, D domain, on phage) MGSWVEFHLRLDAIYGRLMALGGSEAELAAFEKEIAAFESELQAYKGKGNPEVENLRVWAANIRNELQAYRHN', 'ELISA_avg', 17.5),
  ('SEQ ID NO: 600 (designed binder, D domain, on phage) MGSWEEFEDRLWAIDGRLYALGGSEAELAWFEQWIATFEEDLQDYKGKGNPEVEALEYEASAIFEELEAYRHN', 'ELISA_avg', 9.4),
  ('SEQ ID NO: 352 (designed binder, D domain, on phage) MGSWDEFGRRLYAIEWRLYALGGSEAELAAFEKEIAAFESELQAYKGKGNPEVEKLREIAAVIRSNLQAYRHN', 'ELISA_avg', 5.8),
  ('SEQ ID NO: 422 (designed binder, D domain, on phage) MGSWTEFAWRLDAIYDRLLALGGSEAELAAFEKEIAAFESELQAYKGKGNPEVEWLRHVAANIRRELQAYRHN', 'ELISA_avg', 16.1),
  ('SEQ ID NO: 335 (designed binder, D domain, on phage) MGSWDEFYYRLEAIEMRLGALGGSEAELAAFEKEIAAFESELQAYKGKGNPEVEELRHYAAQIRHMLQAYRHN', 'ELISA_avg', 7.2);

Let's switch to this binder now.
The binder listed as SEQ ID NO: 536 (designed binder, D domain, on phage) MGSWWEFQFRLYAIDQRLLALGGSEAELAEFEQDIADFEWMLQDYKGKGNPEVEALMLEADAIEAELKAYRHN has a reported ELISA_avg of 3.1
